Test system: K. pneumoniae NVT1001 strains with carbapenemase plasmids
TEST NAME: Etest MIC of β-lactams, OmpK35/36 loss, ΔramR and/or carbapenemase (Table 9)
Assay type: cell-based, Klebsiella pneumoniae
CONDITION INFO: Klebsiella pneumoniae, VIM-1 on pACYC177; WT (NVT1001); read-out: MIC
MEASUREMENT NAME: MIC (µg/mL)
Report as a plain number; the unit µg/mL is understood.

// worked examples, MIC included
CCO/N=C(\C(=O)N[C@@H]1C(=O)N2C(C(=O)[O-])=C(Sc3nc(-c4cc[n+](C)cc4)cs3)CS[C@H]12)c1nsc(N)n1 [Ceftaroline] :: 256
C[C@@H](O)[C@H]1C(=O)N2C(C(=O)O)=C(S[C@@H]3CN[C@H](C(=O)Nc4cccc(C(=O)O)c4)C3)[C@H](C)[C@H]12 [Ertapenem] :: 2
C[C@H]1[C@H](NC(=O)/C(=N\OC(C)(C)C(=O)O)c2csc(N)n2)C(=O)N1S(=O)(=O)O [Aztreonam] :: 0.06

Here is the next item to consider.
query: What value of MIC has been reported for the following compound? C[C@@H](O)[C@H]1C(=O)N2C(C(=O)O)=C(S[C@@H]3CN[C@H](CNS(N)(=O)=O)C3)[C@H](C)[C@H]12 [Doripenem]
result: 16

---

System: K. pneumoniae NVT1001 strains with ESBL or AmpC β-lactamase plasmids
TEST NAME: Etest MIC of β-lactams, OmpK35/36 loss, ΔramR and/or extended-spectrum β-lactamase and AmpC β-lactamase (Table 8)
Format: cell-based, Klebsiella pneumoniae
CONDITION INFO: Klebsiella pneumoniae, no supplemental plasmid; ΔramRΔ35/36 (ΔramRΔompK35/36 mutant)
MEASUREMENT NAME: MIC (µg/mL)
Write the answer as a number in µg/mL, unit excluded.

Solved cases (4 shown):
CC(C)(O/N=C(\C(=O)N[C@@H]1C(=O)N2C(C(=O)[O-])=C(C[n+]3ccccc3)CS[C@H]12)c1csc(N)n1)C(=O)O :: 2
CO/N=C(\C(=O)N[C@@H]1C(=O)N2C(C(=O)O)=C(COC(C)=O)CS[C@H]12)c1csc(N)n1 :: 4
C[C@@H](O)[C@H]1C(=O)N2C(C(=O)O)=C(S[C@@H]3CN[C@H](C(=O)Nc4cccc(C(=O)O)c4)C3)[C@H](C)[C@H]12 :: 4
C[C@@H](O)[C@H]1C(=O)N2C(C(=O)O)=C(S[C@@H]3CN[C@H](C(=O)N(C)C)C3)[C@H](C)[C@H]12 :: 2

query: Recorded MIC for CO/N=C(\C(=O)N[C@@H]1C(=O)N2C(C(=O)O)=C(COC(N)=O)CS[C@H]12)c1ccco1 with K. pneumoniae NVT1001 strains with ESBL or AmpC β-lactamase plasmids, please?
result: 128

query: What do we get for C[C@@H](O)[C@H]1C(=O)N2C(C(=O)O)=C(SCCN=CN)C[C@H]12 ?
result: 0.5

query: And C[C@H]1[C@H](NC(=O)/C(=N\OC(C)(C)C(=O)O)c2csc(N)n2)C(=O)N1S(=O)(=O)O ?
result: 1

query: // query: CCO/N=C(\C(=O)N[C@@H]1C(=O)N2C(C(=O)[O-])=C(Sc3nc(-c4cc[n+](C)cc4)cs3)CS[C@H]12)c1nsc(N)n1
result: 4

query: How about C[C@@H](O)[C@H]1C(=O)N2C(C(=O)O)=C(S[C@@H]3CN[C@H](CNS(N)(=O)=O)C3)[C@H](C)[C@H]12 ?
result: 0.5
